# target-entity: CFTR-mediated chloride transport (Homo sapiens, UniProt P13569)
# assay-overview: Corrector Assay A - membrane potential dye assay (enteroid cells)
# protocol-conditions: % of chloride transport of triple combination control (1 μM (14S)-dispiro macrocycle + 3 μM tezacaftor + 300 nM ivacaftor)
measure-name: Corrector Assay A % activity

compound	measured-value
CC(C)(C)c1ccc2c(n1)N1C[C@@H](CCC(c3ccccn3)Nc3cccc(n3)S(=O)(=O)NC2=O)CC1(C)C (single isomer, unassigned) [Compound 292]	+++ (+++ is >60%)
COC(=O)NCc1ccnc(C2CC[C@@H]3CN(c4nc(C(C)(C)C)ccc4C(=O)NS(=O)(=O)c4cccc(n4)N2)C(C)(C)C3)c1 (single isomer, unassigned) [Compound 107]	++ (++ is 30-60%)
CC(C)(C)c1ccc2c(n1)N1C[C@@H](CC[C@H](c3cccc(N4CCCCC4)n3)Nc3cccc(n3)S(=O)(=O)NC2=O)CC1(C)C	+++ (+++ is >60%)
CC(C)(C)OC(=O)NCc1ccnc(C2CC[C@@H]3CN(c4nc(C(C)(C)C)ccc4C(=O)NS(=O)(=O)c4cccc(n4)N2)C(C)(C)C3)c1 (single isomer, unassigned) [Compound 120]	+++ (+++ is >60%)
CC(C)c1ccc(-c2ccc3c(n2)N2C[C@@H](CC[C@@H](c4ccccn4)Nc4cccc(n4)S(=O)(=O)NC3=O)CC2(C)C)cc1	++ (++ is 30-60%)
CC(C)(C)c1ccc2c(n1)N1C[C@@H](CCC(c3cc(C4CCNCC4)ccn3)Nc3cccc(n3)S(=O)(=O)NC2=O)CC1(C)C (stereo partly shown) [Compound 123]	+++ (+++ is >60%)
CC1(C)CC2CCC(c3ccccc3)Nc3cccc(n3)S(=O)(=O)NC(=O)c3ccc(-n4ccc(OCCC5(C(F)(F)F)CC5)n4)nc3N1C2 (single isomer, unassigned) [Compound 387]	+++ (+++ is >60%)
CC(C)(C)NCc1ccnc([C@@H]2CC[C@@H]3CN(c4nc(C(C)(C)C)ccc4C(=O)NS(=O)(=O)c4cccc(n4)N2)C(C)(C)C3)c1 (single isomer, unassigned) [Compound 61]	+++ (+++ is >60%)
CC(C)(C)/C=C/c1ccc2c(n1)N1C[C@@H](CC[C@H](c3ccccn3)Nc3cccc(n3)S(=O)(=O)NC2=O)CC1(C)C	+++ (+++ is >60%)
CC(=O)N1CCC(C2CC[C@@H]3CN(c4nc(C(C)(C)C)ccc4C(=O)NS(=O)(=O)c4cccc(n4)N2)C(C)(C)C3)CC1 (stereo partly shown)	++ (++ is 30-60%)

Specify Corrector Assay A % activity for CC(C)(C)CCc1ccc2c(n1)N1C[C@@H](CC[C@H](c3ccccn3)Nc3cccc(n3)S(=O)(=O)NC2=O)CC1(C)C and stop. +++ (+++ is >60%)

Input CC(C)(C)c1ccc2c(n1)N1C[C@@H](CC[C@@H](c3cc(C4CCOCC4)ccn3)Nc3cccc(n3)S(=O)(=O)NC2=O)CC1(C)C (single isomer, unassigned) [Compound 122] , output reported Corrector Assay A % activity. ++ (++ is 30-60%)

Give the reported value of Corrector Assay A % activity for this record: CC(C)(C)c1ccc2c(n1)N1C[C@@H](CC[C@H](c3ccc(C(F)(F)F)cn3)Nc3cccc(n3)S(=O)(=O)NC2=O)CC1(C)C (single isomer, unassigned) ++ (++ is 30-60%)

Quickly give me recorded Corrector Assay A % activity for CC(C)(C)c1ccc2c(n1)N1C[C@@H](CC[C@@H](c3cccc(C4=CCNCC4)n3)Nc3cccc(n3)S(=O)(=O)NC2=O)CC1(C)C ++ (++ is 30-60%)

Please report the measured Corrector Assay A % activity for CC(C)n1cc(-c2ccc3c(n2)N2C[C@@H](CC[C@H](c4ccccn4)Nc4cccc(n4)S(=O)(=O)NC3=O)CC2(C)C)cn1 ++ (++ is 30-60%)

Given CC(C)(C)c1ccc2c(n1)N1C[C@@H](CCC(c3cccnc3)Nc3cccc(n3)S(=O)(=O)NC2=O)CC1(C)C (single isomer, unassigned) [Compound 283] , respond with its Corrector Assay A % activity. +++ (+++ is >60%)

Answer with the recorded Corrector Assay A % activity of CC1(C)CCCc2cc3c(nc21)N1C[C@@H](CCCNc2cccc(n2)S(=O)(=O)NC3=O)CC1(C)C only. ++ (++ is 30-60%)

Assign Corrector Assay A % activity to the following record: COc1cccc(-c2ccc3c(n2)N2C[C@@H](CC[C@@H](c4ccccn4)Nc4cccc(n4)S(=O)(=O)NC3=O)CC2(C)C)c1 ++ (++ is 30-60%)

====

# reported pEC50; entries follow
# target-entity: CFTR-mediated chloride transport (Homo sapiens)
# assay-overview: Corrector Assay A - membrane potential dye assay (enteroid cells)
# protocol-conditions: read-out: Corrector Assay A EC50; human intestinal enteroid cells, 18-24 h incubation; acute 10 μM forskolin + 300 nM ivacaftor
pEC50: −log10 of the molar value.

compound	pEC50
CC(C)(C)OC(=O)N1CCC(c2ccnc(C3CC[C@@H]4CN(c5nc(C(C)(C)C)ccc5C(=O)NS(=O)(=O)c5cccc(n5)N3)C(C)(C)C4)c2)CC1 (stereo partly drawn) [Compound 117]	> 6.00
CC(C)(C)c1ccnc([C@H]2CC[C@@H]3CN(c4nc(-c5cccc(OCC6CCC6)n5)ccc4C(=O)NS(=O)(=O)c4cccc(n4)N2)C(C)(C)C3)c1 [Compound 302]	> 6.00

In the following, a different compound is considered.
Retrieve pEC50 on CFTR-mediated chloride transport (Homo sapiens); query CC(C)(C)c1ccc2c(n1)N1C[C@@H](CC[C@@H](C3CCN(c4ncccn4)CC3)Nc3cccc(n3)S(=O)(=O)NC2=O)CC1(C)C (single isomer, unassigned) [Compound 219] > 6.00

====

# target-entity: CFTR-mediated chloride transport (Homo sapiens)
# assay-overview: Corrector Assay A - membrane potential dye assay (enteroid cells)
# protocol-conditions: % of chloride transport of triple combination control (1 μM (14S)-dispiro macrocycle + 3 μM tezacaftor + 300 nM ivacaftor)
measure-name: Corrector Assay A % activity

Please review the following examples before continuing.
compound	target-entity	measure-name	measured-value
CC(C)(C)c1ccc2c(n1)N1C[C@@H](CC[C@@H](C3CCOCC3)Nc3cccc(n3)S(=O)(=O)NC2=O)CC1(C)C (single isomer, unassigned) [Compound 269]	CFTR-mediated chloride transport (Homo sapiens)	Corrector Assay A % activity	++ (++ is 30-60%)
CC(C)(C)c1ccc2c(n1)N1C[C@@H](CC[C@H](c3cccc(C(N)=O)n3)Nc3cccc(n3)S(=O)(=O)NC2=O)CC1(C)C	CFTR-mediated chloride transport (Homo sapiens)	Corrector Assay A % activity	++ (++ is 30-60%)
CC(C)(C)c1ccc2c(n1)N1C[C@@H](CCC(c3ccc(N4CCOCC4)cn3)Nc3cccc(n3)S(=O)(=O)NC2=O)CC1(C)C (some centres unmarked) [Compound 198]	CFTR-mediated chloride transport (Homo sapiens)	Corrector Assay A % activity	+++ (+++ is >60%)
CC(C)(C)c1ccc2c(n1)N1C[C@@H](CCC(C3CCNCC3)Nc3cccc(n3)S(=O)(=O)NC2=O)CC1(C)C (single isomer, unassigned) [Compound 249]	CFTR-mediated chloride transport (Homo sapiens)	Corrector Assay A % activity	++ (++ is 30-60%)
COc1cccc(-c2ccc3c(n2)N2C[C@@H](CC[C@H](c4ccccn4)Nc4cccc(n4)S(=O)(=O)NC3=O)CC2(C)C)c1	CFTR-mediated chloride transport (Homo sapiens)	Corrector Assay A % activity	+++ (+++ is >60%)
Cn1cc(C2CC[C@@H]3CN(c4nc(C(C)(C)C)ccc4C(=O)NS(=O)(=O)c4cccc(n4)N2)C(C)(C)C3)cn1 (single isomer, unassigned) [Compound 281]	CFTR-mediated chloride transport (Homo sapiens)	Corrector Assay A % activity	+++ (+++ is >60%)

Then this compound:
Given CC(C)COc1cccc(-c2ccc3c(n2)N2C[C@@H](CC[C@H](c4ccccn4)Nc4cccc(n4)S(=O)(=O)NC3=O)CC2(C)C)n1 , respond with its Corrector Assay A % activity. +++ (+++ is >60%)

====

# target-entity: CFTR-mediated chloride transport (Homo sapiens, UniProt P13569)
# assay-overview: Corrector Assay A - membrane potential dye assay (enteroid cells)
# protocol-conditions: % of chloride transport of triple combination control (1 μM (14S)-dispiro macrocycle + 3 μM tezacaftor + 300 nM ivacaftor)
measure-name: Corrector Assay A % activity

// worked examples, Corrector Assay A % activity included
molecule	measured-value
CC(C)(C)c1ccnc([C@@H]2CC[C@@H]3CN(c4nc5ccccc5cc4C(=O)NS(=O)(=O)c4cccc(n4)N2)C(C)(C)C3)c1 (single isomer, unassigned) [Compound 10]	++ (++ is 30-60%)
CC(C)(C)c1ccc2c(n1)N1C[C@@H](CCC(C(=O)O)Nc3cccc(n3)S(=O)(=O)NC2=O)CC1(C)C (single isomer, unassigned) [Compound 230]	+++ (+++ is >60%)
CC(C)O[C@H]1C[C@@H](Oc2ccc3c(n2)N2C[C@@H](CC[C@H](c4ccccn4)Nc4cccc(n4)S(=O)(=O)NC3=O)CC2(C)C)C1	+++ (+++ is >60%)
CC(C)(C)c1ccc2c(n1)N1CC(CCCOc3cccc(c3)S(=O)(=O)NC2=O)CC1(C)C (single isomer, unassigned) [Compound 256]	++ (++ is 30-60%)
Cn1ccc(C2CC[C@@H]3CN(c4nc(C(C)(C)C)ccc4C(=O)NS(=O)(=O)c4cccc(n4)N2)C(C)(C)C3)n1 (single isomer, unassigned) [Compound 278]	++ (++ is 30-60%)

Now look at this one.
Please list Corrector Assay A % activity recorded for the molecule COC(=O)NCc1ccc(C2CC[C@@H]3CN(c4nc(C(C)(C)C)ccc4C(=O)NS(=O)(=O)c4cccc(n4)N2)C(C)(C)C3)nc1 (stereo partly drawn) [Compound 89] ++ (++ is 30-60%)
